Could you please report measured viability at 24 h, 10 µM for the items listed next?
Assay: Cytotoxicity against mouse BV-2 cells assessed as cell viability at 10 uM measured after 24 hrs by MTT assay relative to control
Format: toxicity, cell-based
Settings: read-out: Activity
One number for each entry, in %.

Dear colleague, could you please provide viability at 24 h, 10 µM for the compounds listed below?
1. Cc1ccccc1Cn1ccc2c(Nc3ccc4[nH]c(=O)[nH]c4c3)ncnc21
2. O=C1Cc2cc(Nc3ncnc4c3ccn4Cc3ccc(F)cc3Cl)ccc2N1
3. COc1ccc2c3c1O[C@H]1C[C@@H](O)C=C[C@@]31CCNC2

81.8
56.6
91.2

====

Test: MRT in rat at 20 mg/kg, po single dose
Assay type: ADME, organism-based
Details: in vivo
assay-metric: MRT (h)
Answers are plain numbers, in h.

Consider the compound shown here: "O=c1[nH]c2ccc(Nc3ncnc4c3ccn4Cc3ccc(F)cc3)cc2[nH]1" What is its recorded MRT? 6.2

====

Assay: Tmax in rat at 20 mg/kg, po single dose
Assay type: ADME, organism-based
Settings: in vivo
assay-metric: Tmax (h)
One number for each entry, in h.

Consider the compound shown here: "O=c1[nH]c2ccc(Nc3ncnc4c3ccn4Cc3ccc(F)cc3)cc2[nH]1" What is its recorded Tmax? 1

====

Test: Cytotoxicity against mouse BV-2 cells assessed as cell viability at 10 uM measured after 24 hrs by MTT assay relative to control
Assay type: toxicity, cell-based
Conditions: read-out: Activity
assay-metric: viability at 24 h, 10 µM (%)
Give bare numbers, in %.

1. O=c1[nH]c2ccc(Nc3ncnc4c3cnn4Cc3cccc(Cl)c3F)cc2[nH]1 :: 53.3
2. COc1cc(Cn2ccc3c(Nc4ccc5[nH]c(=O)[nH]c5c4)ncnc32)cc(OC)c1 :: 107
3. Cc1ccc(Cn2ccc3c(Nc4ccc5[nH]c(=O)[nH]c5c4)ncnc32)cc1 :: 77.2
4. O=c1[nH]c2ccc(Nc3ncnc4c3ccn4Cc3cc(C(F)(F)F)cc(C(F)(F)F)c3)cc2[nH]1 :: 58.5
5. COc1ccc(Cn2ccc3c(Nc4ccc5[nH]c(=O)[nH]c5c4)ncnc32)cc1 :: 115
6. COc1cc(Cn2ccc3c(Nc4ccc5c(c4)OCO5)ncnc32)cc(OC)c1 :: 93.2
7. COc1cccc(Cn2ccc3c(Nc4ccc5[nH]c(=O)[nH]c5c4)ncnc32)c1 :: 88.5
8. Fc1ccc(Cn2ccc3c(Nc4ccc5c(c4)OCO5)ncnc32)c(Cl)c1 :: 96.9

Let us examine a further case.
Consider the compound shown here: "O=c1[nH]c2ccc(Nc3ncnc4c3ccn4Cc3ccc4c(c3)OCO4)cc2[nH]1" What is its recorded viability at 24 h, 10 µM? 89.3

====

Assay: Cytotoxicity against mouse BV-2 cells assessed as cell viability at 10 uM measured after 24 hrs by MTT assay relative to control
Format: toxicity, cell-based
Details: read-out: Activity
assay-metric: viability at 24 h, 10 µM (%)
One number for each entry, in %.

1) O=c1[nH]c2ccc(Nc3ncnc4c3ccn4Cc3ccc(F)cc3Cl)cc2[nH]1 :: 84.5
2) COc1cc([C@H]2OC[C@H]3[C@@H]2CO[C@@H]3c2cc(OC)c(O)c(OC)c2)cc(OC)c1O [SYRINGARESINOL] :: 91
3) COc1cc(Cn2ccc3c(Nc4ccc5scnc5c4)ncnc32)cc(OC)c1 :: 84.5
4) O=c1[nH]c2ccc(Nc3ncnc4c3ccn4Cc3ccc(Cl)c(F)c3)cc2[nH]1 :: 83.1
5) Cn1ncc2cc(Nc3ncnc4c3ccn4Cc3ccc(F)cc3Cl)ccc21 :: 79.2

Let us examine a further case.
Consider the compound shown here: "O=c1[nH]c2ccc(Nc3ncnc4c3ccn4Cc3ccc(Cl)cc3)cc2[nH]1" What is its recorded viability at 24 h, 10 µM? 91.7
